Origin of the recorded values: a melting point compilation (Tetko et al.; mined from patent text by program, amines drawn as free bases though some values may be those of a salt)

Here, each record is paired with measured melting point data.

In the examples that follow, each entry is paired with its recorded melting point.
CC(C)OC(=O)Cc1nc(-c2ccc(F)cc2)oc1-c1ccsc1: 108 to 110 °C
CCN1CCN(c2nc(C)c(C(=O)NCc3cccnc3)s2)C1=O: 163 to 164 °C
Cc1cc(S(F)(F)(F)(F)F)ccc1N: 65 to 66 °C
CSc1ccc(-c2nnc(Cl)cc2-c2ccc(Cl)cc2)cc1: 145 to 146 °C
CO[C@H]([C@@H](C)C(=S)NCCc1ccccc1)[C@@H]1CCCN1C(=O)OC(C)(C)C: 107 to 109 °C

Now consider a different compound.
Just so you know, measured melting point for `COCCCCCNC(=O)C(c1ccccc1)c1ccccc1` came out at 74.2 to 75 °C
